All figures here come from PubChem BioAssay AID179.

System: CEM cells HIV-1 protection, formazan growth assay
Test: NCI AIDS Antiviral Assay;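 active means compounds giving half or more protection of infected cells from virus-caused growth loss, again on retest; inactive means the rest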
Outcomes: active, inactive

INSERT INTO assay_data (molecule, qualitative_label) VALUES
  ('CCOC(=O)c1c(SCc2cc(=O)[nH]c(=O)[nH]2)n(-c2ccccc2)c(=S)n(-c2ccccc2)c1=O', 'active'),
  ('O=c1[nH]c2cc(Cl)ccc2nc1/C(=N\Nc1ccccc1)C(O)c1ccc2c(c1)OCO2 (stereo unspecified)', 'inactive'),
  ('Nc1nc(Cl)c(N)c(NCC2(CO)CC2)n1', 'inactive'),
  ('Clc1ccc(CSc2ccc3nncc(SCc4ccc(Cl)cc4)c3c2)cc1', 'inactive'),
  ('CC1(C)C(=O)N(O)C(C)(C)N1O', 'inactive'),
  ('O=C(ONC(=O)[C@H]1C2C=CC(C2)[C@@H]1C(=O)NOC(=O)c1ccccc1)c1ccccc1', 'inactive'),
  ('NC(Cc1ccccc1CP(=O)(O)O)C(=O)O (stereo unspecified)', 'inactive'),
  ('COc1ccc([N+](=O)[O-])c2c(NCCCN(C)C)c(C)c(C)nc12', 'inactive'),
  ('COC(=O)/C=C/C1CC(CCCOc2ccccc2)OC(c2ccccc2)O1 (stereo unspecified)', 'inactive'),
  ('O=[N+]([O-])c1ccc(Sc2c3ccccc3nc3ccccc23)cc1', 'inactive'),
  ('CCCCCCCCCCCCCCCC=C(c1cc(Br)cc(C(=O)O)c1OC)c1cc(Br)cc(C(=O)O)c1OC', 'inactive');

###

System: CEM cells HIV-1 protection, formazan growth assay
Assay: NCI AIDS Antiviral Assay
pEC50: −log10 of the molar value.
reported endpoint: pEC50

INSERT INTO measurements (substance_smiles, reported_endpoint, observed_measurement) VALUES
  ('C#CCOCn1cnc2ncnc(Cl)c21', 'pEC50', '< 2.95'),
  ('CC1(C)COC(c2ccccc2-c2ccccc2)=N1', 'pEC50', '< 3.70'),
  ('O=C(O)/C(=C/C=C/c1ccccc1)c1csc(-c2nc(/C(=C\C=C\c3ccccc3)C(=O)O)cs2)n1', 'pEC50', '< 3.74'),
  ('NCCCNCCNCCCN', 'pEC50', '< 3.70'),
  ('O=C(O)C1(Cc2ccc3c(c2)CCC3)Cc2cc3c(cc2C1)CCC3', 'pEC50', '< 3.70'),
  ('O=c1[nH]c2ccccc2c(O)c1/C=N/C(=S)NCCc1ccccc1', 'pEC50', '< 3.70');

###

Tested on: CEM cells HIV-1 protection, formazan growth assay
Assay: NCI AIDS Antiviral Assay
Settings: measured here: growth of uninfected CEM cells
pIC50: −log10 of the molar value.
reported endpoint: pIC50

INSERT INTO results (compound, reported_endpoint, result_modifier, observed_measurement) VALUES
  ('CC(C)CCN(CCC(C)C)CC(=O)Nc1ccc(S(=O)(=O)c2ccc(NC(=O)CN(CCC(C)C)CCC(C)C)cc2)cc1', 'pIC50', '=', 5.79),
  ('C/C(CC(=O)NCCc1ccccc1)=N\NC(=O)C[n+]1ccccc1', 'pIC50', '<', 4.02),
  ('CCOC(=O)C12C3C(=O)N(CC)C(=O)C3ON1OC1C(=O)N(CC)C(=O)C12 (stereo not given)', 'pIC50', '=', 4.09),
  ('Cc1ccc(-c2n[nH]c(=O)n2N2C(=O)C=CC2=O)cc1', 'pIC50', '=', 3.30),
  ('CC(=O)n1c(O)c(N=Nc2ccccc2[N+](=O)[O-])c2ccccc21', 'pIC50', '<', 3.70),
  ('COc1ccc2nccc(NCCCN3CCN(CCCNc4ccnc5ccc(OC)cc45)CC3)c2c1', 'pIC50', '=', 6.98),
  ('N#Cc1cccc(/C=C2\Cc3ccccc3C2=O)c1', 'pIC50', '<', 5.23),
  ('COc1ccc(N=C2C(=Nc3ccc(OC)cc3)N(S(=O)(=O)c3ccccc3)C(=S)N2c2ccccc2)cc1', 'pIC50', '<', 3.70),
  ('COC(=O)c1cc(C(=O)c2cc(Br)c(OC)c(C(=O)OC)c2)cc(Br)c1OC', 'pIC50', '=', 4.17),
  ('COc1cccc(C2c3cc4c(cc3OC3COC(=O)C32)OCO4)c1OC (stereo not given)', 'pIC50', '=', 3.92);
